method description: in vitro
condition label: human, hela cells, % viability
endpoint label: viability at 28.5 h, 10 µM (%)
Lab book: enter the figure in %, no units written.

Exercise: Field request: viability at 28.5 h, 10 µM | item: `O=C1NC/C=C/CC2(CCN(Cc3ccc(Cl)cn3)CC2)C(=O)NCCOc2ccccc21`
Key: 103

Exercise: Field request: viability at 28.5 h, 10 µM | item: Cn1ccnc1C1(O)C2CCCC1CN(Cc1ccc(F)c(F)c1)C2 (centres unmarked)
Key: 95.1

Exercise: Field request: viability at 28.5 h, 10 µM | item: `Cc1nc(-c2ccc(S(=O)(=O)NCC3CC3)s2)cs1`
Key: 83.9

Exercise: Field request: viability at 28.5 h, 10 µM | item: `Oc1ccccc1CN1CCN(Cc2ccccc2O)C1c1ccccc1Br`
Key: 98.1

Exercise: Field request: viability at 28.5 h, 10 µM | item: CCC(C)c1ccc(NC(=O)c2cccnc2)cc1 (centres unmarked)
Key: 85.9
